Where do the numbers come from? From PubChem BioAssay (NCI).

Test system: M14 melanoma
Test Details: NCI-60 one-dose screen, 48 h (100 = growth as untreated, 0 = no growth, -100 = all killed)
Protocol Conditions: 10 µM unless noted
Compounds without any hit were thinned out: in the full panel of roughly 83,000, 20% have a hit. The source made the active and inactive calls. Rule for the calls: active = growth percent below 10; inactive = the rest.

Molecule: COc1cc2cc(NCc3ccc(OC(F)F)cc3)nc(C)c2cc1OC
growth: 63.9% (inactive)
//
Molecule: Cn1cccc1/C=C1\C(=O)Nc2ccccc21
growth: 96.6% (inactive)
//
Molecule: COc1cc2nc(Nc3cccc(F)c3)nc(Nc3cc(C)[nH]n3)c2cc1OC
growth: -91.4% [20 µM] (active)
//
Molecule: O=C(CN1C(=O)/C(=C/c2ccco2)SC1=S)NCCc1c[nH]c2ccc(F)cc12
growth: 106% (inactive)
//
Molecule: CC(=O)N/C(=C1/OC(C(O)C(O)C(O)CO)CN1C)[P+](c1ccccc1)(c1ccccc1)c1ccccc1 (stereo unspecified)
growth: 99.7% (inactive)
//
Molecule: COc1ccc(C/C(C)=C(\c2ccc(O)cc2)c2ccc(OCCN3CCCC3)cc2)cc1
growth: 95.2% (inactive)
//
Molecule: Cc1ccc2[nH]c(-c3ccc(S(C)(=O)=O)cc3)c(/C=N/N=C(N)N)c2c1
growth: 32.5% (inactive)
//
Molecule: C=C(C)[C@@H]1CC[C@]2(CO)CC[C@]3(C)[C@H](CC[C@@H]4[C@@]5(C)CCC(NCCc6ccc(O)cc6)C(C)(C)[C@@H]5CC[C@]43C)[C@@H]12 (stereo partly specified)
growth: -84.9% (active)
//
Molecule: CCn1cc(CNc2ccc(C(=O)Nc3cc4cc(OC)c(OC)cc4c(C)n3)cc2)c(C)n1
growth: 22.1% (inactive)
//
Molecule: CCCCCCCC/C=C\CCCCCCCCOc1ccc(CC(=O)NCC[N+](C)(C)C)cc1
growth: 63.7% (inactive)
//
Molecule: Cn1cc(-c2csc(-c3cn(C)c4ccc(Br)cc34)n2)c2cnccc21
growth: -80.4% (active)
//
Molecule: COc1ccc(-c2cc(-c3cc(OC)c(OC)c(OC)c3)c(C#N)c(=O)n2CCCCCC(=O)NO)cc1
growth: 99.5% (inactive)
//
Molecule: CC1=NN(c2ccc(Cl)cc2)CC1(C)N=O (stereo unspecified)
growth: 64.9% (inactive)
//
Molecule: N=c1sc(Cc2cc(Cl)ccc2Cl)cn1CC(=O)c1ccccc1
growth: 21.1% (inactive)
//
Molecule: COc1cccc(/C=C2\COc3ccc(O)cc3C2=O)c1
growth: 83.4% (inactive)
//
Molecule: COc1cc(/C=C\c2cc(/C=C\c3ccc(O)c(OC)c3)n(C(=O)CNc3ccc(Cl)cc3)n2)ccc1O
growth: 4.29% (active)
//
Molecule: Cc1c2cnccc2c(C)c2c1c1cc(C3OCCCO3)ccc1n2C
growth: -79.8% (active)
//
Molecule: COC1=CC(c2ccc[nH]2)=N/C1=C\c1[nH]c(C)c(CC(=O)OCc2ccccc2)c1C
growth: -55.9% (active)
//
Molecule: COc1cc2c(c(OC)c1OC)C(=O)N[C@@H]1[C@@H](O)[C@@H](O)[C@H](O)C[C@@H]21
growth: 98.5% (inactive)
//
Molecule: CCCCCCCCn1ccc2cc(NC(=O)Cn3cc(CN4CCCCCC4)nn3)ccc21
growth: -68.3% (active)
//
Molecule: CCCCSCC(=O)c1ccccc1
growth: 99.4% (inactive)
//
Molecule: NC(=O)OCCn1cc(-c2nc(-c3c[nH]c4ncccc34)cs2)c2ccccc21
growth: 11.8% (inactive)
//
Molecule: CCn1cc(C(=O)NN=C2CCCCCC2)c(=O)c2ccc(C)nc21
growth: 103% (inactive)
//
Molecule: Cc1nc2ccccc2c(/C=C/c2ccc(C(F)(F)F)cc2)c1C(=O)/C=C/c1ccccc1
growth: -25.9% (active)
//
Molecule: O=C(O)CCCc1cnc2c3sccc3nc(SCc3c(Cl)cccc3Cl)n12
growth: 33% (inactive)
//
Molecule: COc1cc(OC)cc(C2C(C#N)=C(N)Oc3c2ccc2ccc(O)cc32)c1 (stereo unspecified)
growth: 5.6% (active)
//
Molecule: CN1CCN(c2ccc3c(c2)nc(NNC(=O)c2cnccn2)c2cccn23)CC1
growth: 18.2% (inactive)
//
Molecule: CN1CCN(C(=O)c2cc(-c3ccc4ncnc(N5CCc6cc(F)c(Cl)cc65)c4c3)cnc2N)CC1
growth: 1.59% (active)
//
Molecule: C#CC#CC#CC#CC#CC#CC#CC#CCC1OCC(COC(=O)O[C@@H](C(=O)O[C@H]2C[C@@]3(O)[C@@H](OC(=O)c4ccccc4)[C@@H]4[C@]5(OC(C)=O)CO[C@@H]5C[C@H](O)[C@@]4(C)C(=O)[C@H](OC(C)=O)C(=C2C)C3(C)C)[C@@H](NC(=O)c2ccccc2)c2ccccc2)O1 (stereo partly specified)
growth: -22% (active)
//
Molecule: O=C(N=Nc1c(O)[nH]c2ccccc12)Nc1ccc(Cl)cc1
growth: 95.3% (inactive)
//
Molecule: C#CC#CC#CC#CC#CC#CC#CC#CC[C@H]1OC[C@@H](COC(=O)O[C@@H](C(=O)O[C@H]2C[C@@]3(O)[C@@H](OC(=O)c4ccccc4)[C@@H]4[C@]5(OC(C)=O)CO[C@@H]5C[C@H](O)[C@@]4(C)C(=O)[C@H](OC(C)=O)C(=C2C)C3(C)C)[C@@H](NC(=O)c2ccccc2)c2ccccc2)O1
growth: 25.3% (inactive)
//
Molecule: O=C1NC(=C(Cl)Cl)/C(=N/S(=O)(=O)NCCc2c[nH]c3ccccc23)N1
growth: 83.8% (inactive)
//
Molecule: CNC(=O)c1cc(Oc2ccc3nc(NC(=O)Nc4ccc(Cl)c(Cl)c4)sc3c2)ccn1
growth: 1.23% (active)
//
Molecule: COc1ccc(C(c2cc(OC)c(OC)c(OC)c2)N2CCCC2)cc1 (stereo unspecified)
growth: 60.1% (inactive)
//
Molecule: O=C1Nc2ccc(F)cc2/C1=N/c1nnc(Sc2ccccc2)s1
growth: 99.2% (inactive)
//
Molecule: CC(=O)N(Cc1ccccc1)c1nc2ccc(O)c(CN(C)C)c2s1
growth: 104% (inactive)

----------
System: SW-620 colon
Test Details: NCI-60 one-dose screen, 48 h
Protocol Conditions: 10 µM unless noted
Compounds without any hit were thinned out: in the full panel of roughly 83,000, 20% have a hit. The source made the active and inactive calls. Rule for the calls: active = growth percent below 10; inactive = the rest.
Classes used: class 1 (active), class 0 (inactive)

Compound: Cn1cc(-c2csc(-c3cn(C(=O)OC(C)(C)C)c4ccccc34)n2)c2ccnc(Cl)c21
Label Class: class 0
--
Compound: CCOC(=O)NN1CC(O)=C(c2nc(-c3ccc(Br)cc3)cs2)C1=N
Label Class: class 0
--
Compound: Cn1cc(C(=O)c2nc(-c3c[nH]c4ccc(Br)cc34)no2)c2cc(Br)ccc21
Label Class: class 1
--
Compound: Cc1nc2sc(C(=O)Nc3ccccc3)c(N)c2cc1C(=O)/C=C/c1ccccc1
Label Class: class 1
--
Compound: Cc1cc(N2CCN(C)CC2)nc(NCc2cc(Nc3ccnc4cc(Cl)ccc34)ccc2F)n1
Label Class: class 1
--
Compound: CCN(CC)c1ccc(/C=C\c2cc(C)c3cc(C)ccc3n2)cc1
Label Class: class 0
--
Compound: Cc1cc(F)ccc1S(=O)(=O)Nc1cc(-c2c(O)ccc3ccccc23)c(O)c2ccccc12
Label Class: class 0
--
Compound: O=C1Nc2ccccc2C2c3cccn3-c3ccccc3N12 (stereo not given)
Label Class: class 0
--
Compound: CCOC(=O)c1c2c(n3ccccc13)C(=O)c1ncccc1C2=O
Label Class: class 0
--
Compound: COc1ccc(-c2oc(=O)ccc2-c2cc(OC)c(OC)c(OC)c2)cc1O
Label Class: class 0

----------
Tested on: CAKI-1 renal
Test Details: NCI-60 one-dose screen, 48 h (100 = growth as untreated, 0 = no growth, -100 = all killed)
Protocol Conditions: 10 µM unless noted
Compounds without any hit were thinned out: in the full panel of roughly 83,000, 20% have a hit. Active and inactive are the calls of the source. How the source made its calls: active means growth percent below 10; inactive means the rest.

Compound: COc1ccc(C2=NN(C(C)=O)C(c3ccc(Oc4ccnc5cc(Cl)ccc45)c(OC)c3)C2)cc1 (stereo not given)
growth: 47.9% (inactive)

Compound: CN1CCN(CCCOc2ccc3ncnc(Nc4ccc(Oc5cccc(F)c5)c(Cl)c4)c3c2)CC1
growth: 5.24% (active)

Compound: Cc1ccc(C)n1/C=C/n1c(C)ccc1C
growth: 69.5% (inactive)

Compound: CCCCCCCCCCCCCCCCOC(=O)c1c(C)[nH]c(/C=C2\N=C(c3ccc[nH]3)C=C2OC)c1C
growth: 15.4% (inactive)

Compound: CCCCCCCCn1ccc2cc(NC(=O)Cn3cc(CN4CCN(CC)CC4)nn3)ccc21
growth: 69.6% (inactive)

----------
Tested on: OVCAR-4 ovarian
Test Details: NCI-60 one-dose screen, 48 h (100 = growth as untreated, 0 = no growth, -100 = all killed)
Protocol Conditions: 10 µM unless noted
Procedure: Growth inhibition of the OVCAR-4 human tumor cell line is measured as a screen for anti-cancer activity. Cells are grown in 96 well plates and exposed to the test compound for 48 hours. Compounds are tested at a single concentration, which is 10^-5 M for most compounds. The reported endpoint is percent growth (GI% or GIPRCNT), where numbers from 0 - 100% represent growth inhibition, and numbers from -100% - 0 represent cell death. For example, a value of 40 represents 60% growth inhibition. […]
About 83,000 compounds went through this panel and 20% of them were active in at least one assay; those are over-represented in the sample as a whole.
Attribute Measured: growth (%)

Compound: O=C(CCC(=O)c1nc2ncccc2[nH]1)NN1C(=O)CSC1c1ccc(Cl)cc1 (stereo not given)
Attribute Measured: growth
Assay Result: 94.1

Compound: O=C(CCl)Nc1ccc2c(Nc3cc(O)ccc3Cl)ncnc2c1
Attribute Measured: growth
Assay Result: -65.2

Compound: CCNCc1ccc(O)c2ncccc12
Attribute Measured: growth
Assay Result: 17.8

Compound: O=C1c2cc3c(cc2-c2c1c1ccc(Cl)cc1c(=O)n2C[C@H](O)CO)OCO3
Attribute Measured: growth
Assay Result: 4.86

Compound: CCN(CC)CCNC(=O)c1ccc(-c2nc3ccc4[nH]ncc4c3c3c2CCCC3)cc1
Attribute Measured: growth
Assay Result: 76.1

Compound: Cn1ccnc1C(=O)/C=C/c1ccc(C(=O)Nc2ccc(F)cc2)cc1
Attribute Measured: growth
Assay Result: 28.5

Compound: COc1cc(-c2nc3occn3c2-c2ccnc(NCCCNS(=O)(=O)c3ccccc3)n2)ccc1F
Attribute Measured: growth
Assay Result: 33

Compound: C/C(C=O)=C\c1ccc2c(c1)OCO2
Attribute Measured: growth
Assay Result: 109

Compound: O=C1/C(=C/c2cccc([N+](=O)[O-])c2)COc2ccc(O)cc21
Attribute Measured: growth
Assay Result: 74.4

Compound: C=C1C(=O)O[C@H]2[C@H]1CC/C(COC(=O)c1cc3cc(F)ccc3[nH]1)=C\CC[C@@]1(C)O[C@@H]21
Attribute Measured: growth
Assay Result: -68.2
